Quick reference for inhibition at 100 µM among some compounds
target-under-test: soluble epoxide hydrolase (sEH) (Homo sapiens)
Construct: purchased Cayman 10011669
Sequence (P34913 whole entry): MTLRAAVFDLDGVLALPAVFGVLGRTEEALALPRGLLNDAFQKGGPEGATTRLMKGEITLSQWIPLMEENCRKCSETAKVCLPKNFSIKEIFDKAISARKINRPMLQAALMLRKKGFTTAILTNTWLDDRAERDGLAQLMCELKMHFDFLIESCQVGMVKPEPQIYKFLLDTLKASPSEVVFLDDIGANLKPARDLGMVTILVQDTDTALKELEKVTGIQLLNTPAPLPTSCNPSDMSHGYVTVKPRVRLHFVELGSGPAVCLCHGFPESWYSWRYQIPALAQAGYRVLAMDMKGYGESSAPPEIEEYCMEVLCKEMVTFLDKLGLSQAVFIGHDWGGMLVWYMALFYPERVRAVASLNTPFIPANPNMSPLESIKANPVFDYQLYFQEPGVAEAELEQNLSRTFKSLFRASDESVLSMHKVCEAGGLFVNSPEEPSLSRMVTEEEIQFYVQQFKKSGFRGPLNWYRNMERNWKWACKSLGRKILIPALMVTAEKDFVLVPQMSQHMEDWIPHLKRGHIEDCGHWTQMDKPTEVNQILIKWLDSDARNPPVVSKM
assay-notes: sEH inhibition assay (PHOME fluorescent substrate)
Assay type: biochemical
protocol-conditions: 100 μM compound, 37 °C, after 40 min, mean ± SEM, read-out: Inhibition of compounds on sEH, 100 μM (%)

compound | inhibition at 100 µM
O=C(O)c1ccc(O)c(O)c1 [Compound 9, protocatechuic acid] | < 38%
O=C1CC(c2ccc(O)cc2)Oc2cc(O)c(C3OC(CO)C(O)C(O)C3O)c(O)c21 [Compound 3, naringenin-6-C-β-D-glucopyranoside] | < 38%
Oc1cc(O)c2c(c1)O[C@H](c1ccc(O)c(O)c1)[C@@H](O)C2 [Compound 5, (+)-catechin] | < 38%
